# reported conditions: Support: UPE composite; 10 nanomolar CE concentration in phosphate buffered saline
compounds and their reported % Non Specific Binding
property measured: % Non Specific Binding (%)

| compound | numeric result |
| --- | --- |
| C[C@H]1O[C@@H](O[C@H]2[C@@H](O)C[C@H](O[C@H]3[C@@H](O)C[C@H](O[C@H]4CC[C@@]5(C)[C@H](CC[C@@H]6[C@@H]5C[C@@H](O)[C@]5(C)[C@@H](C7=CC(=O)OC7)CC[C@]65O)C4)O[C@@H]3C)O[C@@H]2C)C[C@H](O)[C@@H]1O [digoxin] | 47 |
| CN(Cc1cnc2nc(N)nc(N)c2n1)c1ccc(C(=O)N[C@@H](CCC(=O)O)C(=O)O)cc1 [methotrexate] | 16 |
| OC[C@@H](O)[C@@H](O)[C@H](O)[C@H](O)CO [mannitol] | 1 |
| C[C@]12CC[C@H]3[C@@H](CCC4=CC(=O)CC[C@@]43C)[C@@H]1CC[C@@H]2O [testosterone] | 101 |
| CC(C)NCC(O)COc1cccc2ccccc12 (centres unmarked) [proprananol] | 61 |

// provenance: patent US20050266577A1
